experiment: NCI Yeast Anticancer Drug Screen. Data for the rad50 strain (AID 155);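 also: 0% = growth of vehicle-only cultures of the same strain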; conditions: S. cerevisiae rad50 strain growth inhibition; at 50.0 µM; hits give high values
About 79,000 compounds went through this panel and 15% of them were active in at least one assay; those are over-represented in the sample as a whole.
OUTCOME_MEASURE: growth inhibition (%)
Give the quantity in %, number only.

COc1ccc(/C=C2/SC(=Nc3ccccc3)N(NC(=O)Cc3ccccc3)C2=O)cc1 | -22.7
COc1cc([N+](=O)[O-])c(OC)cc1Nc1ccccc1C(=O)O | 13.1
CCCCOC(=O)CNC(=O)OC/C=C/C#CC#C/C=C/COC(=O)NCC(=O)OCCCC | -20.2
C1=C(N2CCOCC2)CCC(N2CCOCC2)=C1 | -2.85
Cc1ccc(C(C)C)c(OC(=O)NCCCCCCNC(=O)Oc2cc(C)ccc2C(C)C)c1 | -11
CCCCCCN(CCCCCC)C(=S)N/N=C(\C)c1ccccn1 | 85

Task: So what does the record say about growth inhibition for "N#CCCCCCCCCCCC(=O)O" ?
Result: -24.6

Task: Fill in the blank: the reported growth inhibition of "CCCCCCCCCCCCCCCC/C(C)=C\C(=O)OC" is ____.
Result: 3.8

Task: Fill in: growth inhibition of "O=C(O)/C=C/C(=O)Nc1ccc2c(c1)-c1ccccc1C2=O" is ___
Result: 15.9

Task: Can you look up the measured growth inhibition of "Cc1cc(Br)ccc1Br" for me?
Result: 34.6

Task: What value of growth inhibition has been reported for the following compound? "Nc1nc(Cl)cc(Oc2ccc(Cl)cc2)n1"
Result: 9.65

Task: What value of growth inhibition has been reported for the following compound? "COC(=O)Nc1nc2ccc(-n3c(C)nc4ccccc4c3=O)cc2[nH]1"
Result: 10.8
